test: qHTS for Inhibitors of the Functional Ribonucleoprotein Complex (vRNP) of Lassa (LASV) Arenavirus: Viability assay - alamar blue signal for LASV Primary Screen (AID 1347083); settings: cell viability, alamar blue fluorescence (LASV minigenome counter-screen); series mostly up to 57.5 µM; further: nearly all actives have a fitted effect of over 80% in size
Inconclusive results are not listed. The source made the active and inactive calls. The call rests on the fitted dose curve; tested in HEK293 reporter line.
Measurement Type: activity change, negative = reduced viability

Known activity change, negative = reduced viability results, listed for orientation:
| Compound | Data Value |
| --- | --- |
| CCC(CC)(CNC(=O)CCCO)c1cccc(OC)c1 | inactive |
| COC(=O)c1cc(Cl)ccc1NS(=O)(=O)C(F)(F)F | inactive |
| CC(C)C[C@H](NC(=O)CNC(=O)[C@H](Cc1ccc(O)cc1)NC(=O)[C@H](CO)NC(=O)[C@H](Cc1c[nH]c2ccccc12)NC(=O)[C@H](Cc1cnc[nH]1)NC(=O)[C@@H]1CCC(=O)N1)C(=O)N[C@@H](CCCN=C(N)N)C(=O)N1CCC[C@H]1C(=O)NCC(N)=O (stereo in doubt) | inactive |
| C[N+](C)(CCOc1ccccc1)Cc1cccs1 | inactive |
| CC(C(=O)O)c1ccc2c(c1)CC(=O)c1ccccc1S2 (stereo not drawn) | inactive |
| CCN1CCCC1CN (stereo not drawn) | inactive |
| CCCOC(=O)c1cncn1C(C)c1ccccc1 (stereo not drawn) | inactive |
| CCCOc1ccc2c(c1)CC[C@@H]1[C@@H]2CC[C@]2(C)C(OC)CC[C@@H]12 (stereo partly drawn) | inactive |
| C[N+]1(C)[C@@H]2CC(OC(=O)[C@H](CO)c3ccccc3)C[C@H]1[C@@H]1O[C@@H]12 (stereo partly drawn) | inactive |
| NC(=O)NC(=O)Cc1ccccc1 | inactive |

Per the records, this compound ( COc1ccc(C(=O)c2ccccc2)c(O)c1 ) has activity change, negative = reduced viability equal to inactive

Per the records, this compound ( c1ccc(N2CCNCC2)cc1 ) has activity change, negative = reduced viability equal to inactive

Per the records, this compound ( COc1ccc2c(c1)CCCC2=O ) has activity change, negative = reduced viability equal to inactive

From: PubChem BioAssay (NCATS)
